Values were extracted from ChEMBL document CHEMBL3988442.

- tested.target: Arginase-2, mitochondrial (Homo sapiens) (UniProt P78540)
- Sequence (P78540 whole entry): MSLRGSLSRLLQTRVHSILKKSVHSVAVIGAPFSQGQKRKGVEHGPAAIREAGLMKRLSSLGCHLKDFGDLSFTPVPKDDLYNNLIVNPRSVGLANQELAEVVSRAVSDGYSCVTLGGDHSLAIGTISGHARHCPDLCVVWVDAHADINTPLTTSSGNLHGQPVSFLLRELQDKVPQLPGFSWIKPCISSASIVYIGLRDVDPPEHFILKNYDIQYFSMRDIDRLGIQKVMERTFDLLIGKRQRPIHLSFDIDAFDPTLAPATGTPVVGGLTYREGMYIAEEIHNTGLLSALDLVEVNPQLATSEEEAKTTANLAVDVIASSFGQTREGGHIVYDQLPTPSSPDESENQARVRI
- assay: in vitro enzyme assay to detect the production of urea directly proportional to the activity of Arginase II
- Type: functional
- Parameters: scale not given: in the data most compounds retested in dose-response had high values
- run.parameters: 33.3 µM
Entries and their Percent Effect
readout: Percent Effect (%)

compound: Cc1ccc(C(=O)NCCNc2ncccc2C#N)c(=O)[nH]1
data.value: -15
//
compound: O=C1C[C@H]2[C@@H](CCN2C(=O)Cc2cccs2)N1Cc1cccnc1
data.value: -4.11
//
compound: COc1cc(S(=O)(=O)N2CCc3ccc(F)cc32)cc(C(=O)O)c1OC
data.value: 0
//
compound: Cc1cc(C2CCCN(C(=O)c3c(C)nn4cccnc34)C2)n[nH]1 (configuration not stated)
data.value: 0.444
//
compound: CCc1cc(O)nc(C2CCCN2C(=O)c2cccnc2)n1 (configuration not stated)
data.value: 3.1
//
compound: O=C(c1ccnnc1)N1C[C@@H](OCC2CCOCC2)[C@H]2OCCC[C@H]21
data.value: 14.6
//
compound: CCNc1cc2c(nn1)CCN(C(=O)c1cc3nc(C)ccc3o1)C2
data.value: -0.887
//
compound: CCn1nc2c(cc1=O)CN(Cc1nc(-c3ccsc3)no1)CC2
data.value: 6.56
//
compound: CCC1c2ccsc2CCN1C(=O)NCc1cc[nH]n1 (configuration not stated)
data.value: 0
//
compound: Cc1cc(OCC(=O)N2CCCC(c3noc(C)n3)C2)no1 (configuration not stated)
data.value: 4.88
//
compound: CCc1nc(C2CCCN2C(=O)c2ccc3c(c2)nc(C)n3C)no1 (configuration not stated)
data.value: 1.77
//
compound: CC(C)(C)C(O)CN1CCN(C(=O)c2cccc3[nH]ncc23)CC1 (configuration not stated)
data.value: -0.41
//
compound: Cc1cccnc1CNCC1(O)CCCN(Cc2ccc(F)cc2)C1=O (configuration not stated)
data.value: 29.7
//
compound: CC1(C)OCC(CNC(=O)c2cnn(-c3ccc(Cl)cc3)c2N)O1 (configuration not stated)
data.value: -0.443
//
compound: CS(=O)(=O)NCC1CCCN(C(=O)COCC(F)(F)F)C1 (configuration not stated)
data.value: 2.87
//
compound: CS(=O)(=O)NCC1CCCN(C(=O)COCc2ccccc2)C1 (configuration not stated)
data.value: 6.56
//
compound: CCCNC(=O)c1cc2c(c3ccccc3n2C)n1C(=O)N(C)C
data.value: 1.22
//
compound: Cc1noc(C)c1CN1CCN(Cc2nccn2C)CC1
data.value: -0.444
//
compound: Fc1cccc(-c2nc(CN3CCn4c(nnc4C4CC4)C3)co2)c1
data.value: 1.33
//
compound: Cc1cc(C)n(CC2CN(Cc3nc(-c4ccco4)no3)CCO2)n1 (configuration not stated)
data.value: 1.43
//
compound: COCCN1CCCN(C(=O)NC(C)Cn2ccnc2)CC1 (configuration not stated)
data.value: -4.71
//
compound: O=C(c1ccccn1)N1Cc2nccn2CC(CN2CCOCC2)C1 (configuration not stated)
data.value: 5.67
//
compound: CC[C@H](C)Nc1nccc(-c2cnc3sc(C)c(C)n3c2=O)n1
data.value: -3.55
//
compound: CC(C(=O)N1CCCC1)N1CCC(c2nccn2Cc2cscn2)CC1 (configuration not stated)
data.value: 5.94
//
compound: CNc1snc(C)c1C(=O)N1CCCC(n2nc(C)cc2C)C1 (configuration not stated)
data.value: -3.1
//
compound: Cc1nn(C)c(N(C)C)c1CNC(C)COc1cccc(F)c1 (configuration not stated)
data.value: -2.66
//
compound: CN(C)CC1CN(Cc2coc(-c3ccccc3Cl)n2)CCO1 (configuration not stated)
data.value: 2.66
//
compound: CC(C)NC(=O)C1CN(C(=O)N2CCCC2)CC12CCOCC2 (configuration not stated)
data.value: -4.45
//
compound: Cc1csc2ncc(-c3ccnc(N4CCCC[C@@H]4CO)n3)c(=O)n12
data.value: 0
//
compound: CNC(=O)[C@@H]1C[C@H]2CN(Cc3nccs3)C[C@H]2N1C
data.value: 2.28
//
compound: CC(O)(CN1CCC2(CC1)OCCO2)c1cccc(C(F)(F)F)c1 (configuration not stated)
data.value: -2.25
//
compound: CNc1nc2c(s1)C(=O)CN(C(=O)NCc1ccccc1)C2
data.value: 5.32
//
compound: c1cnnc(N2CCCC2CNCc2nc(C3CC3)no2)c1 (configuration not stated)
data.value: 1.64
//
compound: Cc1nc(C)n(CC2CCCN2Cc2nc3ccccc3n2C)n1 (configuration not stated)
data.value: 3.55
//
compound: Cc1cc(CN(C)C(=O)c2ccc(C(F)(F)F)nc2)no1
data.value: 3.1
//
compound: O=C(N1CCCC1)N1CCC2(CCCN(CCOc3ccccc3)C2)C1 (configuration not stated)
data.value: -1.37
//
compound: Cc1ccc(OCC(O)CN2CCC(Cn3cccn3)CC2)cc1 (configuration not stated)
data.value: 4.3
//
compound: CN1CCCn2c(nc(CNC(=O)c3ccsc3)cc2=O)C1
data.value: 6.07
//
compound: CCc1nc(C2CCCN2C(=O)CCCn2cccn2)no1 (configuration not stated)
data.value: 8.4
//
compound: O=C1NCCN(CC2CC2)C12CCN(Cc1ccco1)CC2
data.value: 2.83
//
compound: COCCc1noc(CN2CCCCC2Cn2nc(C)cc2C)n1 (configuration not stated)
data.value: 2.25
//
compound: COc1cccc(COCC(=O)N2CCCC(n3ccnc3C)C2)c1 (configuration not stated)
data.value: 4.92
//
compound: Cn1c(CN2CCCC2c2noc(C3CC3)n2)cc(=O)n(C)c1=O (configuration not stated)
data.value: -3.99
//
compound: CC(C)CN1CCC2(CCN(Cc3ccsc3)CC2)C1=O
data.value: 0.913
//
compound: CO[C@@H]1CCN(C(=O)c2ccccn2)[C@H]1Cc1ccccc1
data.value: -0.457
//
compound: COc1ccc(F)cc1C(C)NC(=O)Cn1ccc(=O)n(C)c1=O (configuration not stated)
data.value: 5.94
//
compound: Cc1cc(C)n(C2CCCN(C(=O)c3c(C)c(C)n[nH]c3=O)C2)n1 (configuration not stated)
data.value: 0.887
